measurement_notes: AUC (0 to infinity) in Sprague-Dawley rat at 1 mg/kg, iv
Type: ADME, organism-based
Set-up: time infinity, dose 1 mg/kg, route intravenous
test_settings: plasma
parameter: AUC(0-inf) (ng·h/mL)
Only the number, expressed in ng·h/mL, is required.

*Q* Which AUC(0-inf) value is on record for C[C@H](NCc1ccc2c(c1)[nH]/c(=N\C(=O)c1ccc(-c3cn[nH]c3)s1)n2CC(C)(C)O)C(C)(C)C ?
*A* 314

###

measurement_notes: Solubility at pH 7
Assay type: physicochemical
test_settings: buffer
parameter: solubility (µg/mL)
Only the number, expressed in µg/mL, is required.

*Q* Which solubility value is on record for Cc1ncc(-c2ccc(C(=O)Nc3nc4cc(N(C)C(=O)c5ccccc5)ccc4n3CC(C)(C)O)s2)o1 ?
*A* 2

###

system: Tyrosine-protein kinase ITK/TSK (Homo sapiens, UniProt Q08881)
Sequence (Q08881 whole entry): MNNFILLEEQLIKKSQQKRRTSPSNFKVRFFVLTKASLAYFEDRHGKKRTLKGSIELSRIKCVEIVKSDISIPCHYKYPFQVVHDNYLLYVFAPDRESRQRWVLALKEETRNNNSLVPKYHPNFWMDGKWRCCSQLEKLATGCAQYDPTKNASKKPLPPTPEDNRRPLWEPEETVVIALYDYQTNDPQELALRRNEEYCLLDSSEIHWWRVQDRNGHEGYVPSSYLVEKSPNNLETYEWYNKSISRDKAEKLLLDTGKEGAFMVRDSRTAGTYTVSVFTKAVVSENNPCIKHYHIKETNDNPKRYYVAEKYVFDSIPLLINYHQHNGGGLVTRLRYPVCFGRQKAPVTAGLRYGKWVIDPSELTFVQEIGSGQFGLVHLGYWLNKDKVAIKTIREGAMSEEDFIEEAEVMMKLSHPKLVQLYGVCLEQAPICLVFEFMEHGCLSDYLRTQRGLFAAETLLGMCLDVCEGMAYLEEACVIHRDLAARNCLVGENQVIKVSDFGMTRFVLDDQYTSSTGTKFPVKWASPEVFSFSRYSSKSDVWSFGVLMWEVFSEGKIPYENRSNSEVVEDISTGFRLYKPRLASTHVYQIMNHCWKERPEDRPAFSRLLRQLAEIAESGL
measurement_notes: Inhibition of ITK in presence of 1 mM ATP
Records here are stratified by IC50; strata: A (below 200 nM), B (200 nM to below 300 nM), C (300 nM or more)

compound	system	label_class
CC(C)(O)Cn1c(NC(=O)c2ccc(-c3cn[nH]c3)s2)nc2cc(CNc3ccccc3)ccc21	Tyrosine-protein kinase ITK/TSK (Homo sapiens, UniProt Q08881)	A
CC(C)(O)Cn1/c(=N/C(=O)c2ccc(-c3cn[nH]c3)s2)[nH]c2cc(CN3CCOCC3)ccc21	Tyrosine-protein kinase ITK/TSK (Homo sapiens, UniProt Q08881)	B
CN(Cc1ccc2c(c1)nc(NC(=O)c1ccc(-c3cn[nH]c3)s1)n2CC(C)(C)O)C1CCCCC1	Tyrosine-protein kinase ITK/TSK (Homo sapiens, UniProt Q08881)	A
CC(C)(O)Cn1c(NC(=O)c2ccc(-c3cn[nH]c3)s2)nc2cc(CN)ccc21	Tyrosine-protein kinase ITK/TSK (Homo sapiens, UniProt Q08881)	C
CC(C)(O)Cn1/c(=N/C(=O)c2ccc(-c3cn[nH]c3)s2)[nH]c2cc(CN3CCC(O)C3)ccc21 (centres undefined)	Tyrosine-protein kinase ITK/TSK (Homo sapiens, UniProt Q08881)	C

*Q* Which class holds CC(C)(O)Cn1/c(=N/C(=O)c2ccc(-c3cn[nH]c3)s2)[nH]c2cc(CN3CCCCC3)ccc21 ?
*A* B

*Q* Which class holds Cc1ncc(-c2ccc(C(=O)Nc3nc4cc(CNC5CCCCC5)ccc4n3CC(C)(C)O)s2)o1 ?
*A* C

*Q* Which class holds C[C@H](N(C)Cc1ccc2c(c1)[nH]/c(=N\C(=O)c1ccc(-c3cn[nH]c3)s1)n2CC(C)(C)O)C(C)(C)C ?
*A* A

###

system: UniProtKB P06213
Sequence (P06213 28-758 limits assumed): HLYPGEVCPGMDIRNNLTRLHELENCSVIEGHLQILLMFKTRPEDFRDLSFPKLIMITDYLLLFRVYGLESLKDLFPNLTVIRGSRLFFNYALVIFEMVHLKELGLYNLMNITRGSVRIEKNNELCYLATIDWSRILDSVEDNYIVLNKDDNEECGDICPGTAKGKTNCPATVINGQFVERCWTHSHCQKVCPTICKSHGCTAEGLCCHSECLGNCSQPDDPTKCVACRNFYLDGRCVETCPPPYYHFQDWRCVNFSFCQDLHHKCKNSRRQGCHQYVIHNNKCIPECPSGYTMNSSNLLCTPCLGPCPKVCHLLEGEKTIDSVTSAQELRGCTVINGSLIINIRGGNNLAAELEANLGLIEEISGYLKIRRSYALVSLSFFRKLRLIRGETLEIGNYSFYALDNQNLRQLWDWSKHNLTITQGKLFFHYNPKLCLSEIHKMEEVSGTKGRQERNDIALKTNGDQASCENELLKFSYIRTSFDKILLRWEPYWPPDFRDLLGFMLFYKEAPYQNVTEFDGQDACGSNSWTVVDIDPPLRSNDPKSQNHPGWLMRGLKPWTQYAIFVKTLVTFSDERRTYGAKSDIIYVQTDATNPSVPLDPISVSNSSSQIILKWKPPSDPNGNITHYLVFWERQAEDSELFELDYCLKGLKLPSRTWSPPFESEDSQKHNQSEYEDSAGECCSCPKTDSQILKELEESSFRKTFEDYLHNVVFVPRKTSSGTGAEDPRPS
Sequence (P06213 763-1382 limits assumed): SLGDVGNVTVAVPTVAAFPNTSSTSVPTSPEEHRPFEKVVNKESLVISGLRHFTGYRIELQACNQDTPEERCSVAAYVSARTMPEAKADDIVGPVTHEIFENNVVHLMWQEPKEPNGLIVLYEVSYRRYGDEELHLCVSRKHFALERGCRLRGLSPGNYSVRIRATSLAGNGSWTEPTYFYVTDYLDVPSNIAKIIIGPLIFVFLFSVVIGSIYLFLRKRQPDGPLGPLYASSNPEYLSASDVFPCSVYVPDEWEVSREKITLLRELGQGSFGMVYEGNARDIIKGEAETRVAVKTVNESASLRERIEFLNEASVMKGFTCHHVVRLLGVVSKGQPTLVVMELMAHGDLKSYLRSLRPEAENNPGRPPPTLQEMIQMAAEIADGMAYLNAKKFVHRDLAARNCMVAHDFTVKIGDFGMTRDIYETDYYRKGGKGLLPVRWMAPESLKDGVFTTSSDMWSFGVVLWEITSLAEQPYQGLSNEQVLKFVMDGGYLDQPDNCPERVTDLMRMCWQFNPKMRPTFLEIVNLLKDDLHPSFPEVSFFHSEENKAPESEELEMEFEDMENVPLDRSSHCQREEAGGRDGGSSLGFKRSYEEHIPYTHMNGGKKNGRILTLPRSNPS
Each entry below carries its reported IC50.
Only the number, expressed in µM, is required.

molecule	quantity_unit	measurement
CN(C)CCN(C)Cc1ccc2c(c1)[nH]/c(=N\C(=O)c1ccc(-c3cn[nH]c3)s1)n2CC(C)(C)O	µM	0.39
C[C@H](N(C)Cc1ccc2c(c1)[nH]/c(=N\C(=O)c1ccc(-c3cn[nH]c3)s1)n2CC(C)(C)O)C(C)(C)C	µM	0.4

Turning now to a further record.
*Q* Record lookup: for UniProtKB P06213, what IC50 belongs to CC(C)(O)Cn1c(NC(=O)c2ccc(-c3cn[nH]c3)s2)nc2cc(CNC3CCCCC3)ccc21 ?
*A* 0.4

###

system: Tyrosine-protein kinase ITK/TSK (Homo sapiens)
measurement_notes: Binding affinity to ITK by DELFIA-based molecular assay
parameter: IC50 (nM)
Only the number, expressed in nM, is required.

// worked examples, IC50 included
compound	IC50 (nM)
CC(C)(O)Cn1c(NC(=O)c2ccc(-c3cn[nH]c3)s2)nc2cc(CNC3CCCCC3)ccc21	1
CC(C)(O)Cn1/c(=N/C(=O)c2ccc(-c3cn[nH]c3)s2)[nH]c2cc(CN3CCC(O)C3)ccc21 (stereo not drawn)	2
CC(C)(O)Cn1c(NC(=O)c2ccc(-c3cn[nH]c3)s2)nc2cc(CN)ccc21	4
CCC(C)NCc1ccc2c(c1)nc(NC(=O)c1ccc(-c3cn[nH]c3)s1)n2CC(C)(C)O (stereo not drawn)	2
C[C@@H](NCc1ccc2c(c1)nc(NC(=O)c1ccc(-c3cn[nH]c3)s1)n2CC(C)(C)O)C(C)(C)C	1

*Q* Record lookup: for Tyrosine-protein kinase ITK/TSK (Homo sapiens), what IC50 belongs to C[C@H](N(C)Cc1ccc2c(c1)[nH]/c(=N\C(=O)c1ccc(-c3cn[nH]c3)s1)n2CC(C)(C)O)C(C)(C)C ?
*A* 1

*Q* Record lookup: for Tyrosine-protein kinase ITK/TSK (Homo sapiens), what IC50 belongs to Cc1ncc(-c2ccc(C(=O)Nc3nc4cc(N(C)C(=O)c5ccccc5)ccc4n3CC(C)(C)O)s2)o1 ?
*A* 3

*Q* Record lookup: for Tyrosine-protein kinase ITK/TSK (Homo sapiens), what IC50 belongs to C[C@H](NCc1ccc2c(c1)[nH]/c(=N\C(=O)c1ccc(-c3cn[nH]c3)s1)n2CC(C)(C)O)C(C)(C)C ?
*A* 1
